These measurements were taken from patent US11339171B2.

test: Pharmacokinetics in ICR mice after intravenous and intragastric administration; type: in vivo; settings: male, ICR, mouse, plasma, po, 5 mg/kg, ICR mice, PO 5 mg/kg, mean of 3 animals; read-out: MRT(0-t)
experimental_readout: MRT last
Answer with the value and then the unit.

# example entries with known answers
>  <smiles_code>
COc1nc(C2CC2)ncc1-c1nc2c(n1C(C)C)[C@@]1(C(=O)Nc3cc(Cl)ccc31)N(c1cc(Cl)cnc1C)C2=O

>  <MRT last>
2.21 h

$$$$
>  <smiles_code>
COc1cc(C(F)(F)F)ncc1-c1nc2c(n1C(C)C)[C@@]1(C(=O)Nc3cc(Cl)ccc31)N(c1cc(Cl)ccc1C)C2=O

>  <MRT last>
3.34 h

$$$$

Query compound follows.
Q. Value lookup for MRT last; key = `COc1ccc(-c2nc3c(n2C(C)C)[C@@]2(C(=O)Nc4cc(Cl)ccc42)N(c2cc(Cl)cnc2C)C3=O)c(OC)c1`
A. 1.84 h
